Cited source: PubChem BioAssay AID624167

Tested on: PEG-3
Assay: Peg3 promoter luciferase inhibitors, potency, dose response, cell-based, HeLa, CREF/GAPDH counter-screen panel (AID 624167)
Conditions: HeLa PEG-Prom luciferase reporter, overnight, CREF/GAPDH counter-screens, run 1, dose range 1, individual replicate IC50 per panel
pIC50: −log10 of the molar value.
Please note: YES applies when pIC50 is 5 or greater, and NO applies otherwise.

Does the reported pIC50 for c1ccc(C[C@H]2CNCCN2CCCCC2CCCCC2)cc1 fall at or above the 5 mark?
NO

Could you do the same for Cc1ccc(/C=C2\SC(=S)N(CCCC(=O)NNC(=O)c3ccccc3O)C2=O)cc1 , please?
YES

Could you do the same for CCCCn1nnnc1C(CCSC)N1CCC(n2c(=O)[nH]c3ccccc32)CC1 (stereo not given) , please?
NO

Could you do the same for CNCC[C@@H](Oc1ccc(C(F)(F)F)cc1)c1ccccc1 , please?
NO

Could you do the same for CC(C)(C)c1ccc(Oc2ccc(N)cc2)cc1 , please?
YES

Could you do the same for CC(=O)c1c(NCCc2ccccc2)nc(=S)n(-c2ccccc2)c1C , please?
NO

Could you do the same for CCc1ccc(C(=O)Nc2nc3ccccc3[nH]2)cc1 , please?
YES

Could you do the same for CC(C)(C)c1ccc(C(=O)O/N=C(\N)c2ccccn2)cc1 , please?
YES

Could you do the same for COc1ccc(CC(=O)N(Cc2ccccc2)c2ccccc2)cc1S(=O)(=O)N1CCOCC1 , please?
NO

Could you do the same for O=C(NNC(=O)c1cccnc1SCc1cccc([N+](=O)[O-])c1)c1ccccn1 , please?
YES

Could you do the same for Cc1ccc(-c2cc3c(nn2)-c2ccccc2C3=O)cc1 , please?
YES

Could you do the same for CN(C)CC(O)COc1ccc(C(C)(C)c2ccc(OCC(O)CN(C)C)cc2)cc1 (stereo not given) , please?
NO

Could you do the same for COc1ccc(/C=C/c2nc3ccccc3n2C)cc1 , please?
YES

Could you do the same for COc1ccc(C2c3ccc4ccccc4c3Oc3ncn(CCO)c(=N)c32)cc1OC (stereo not given) , please?
NO

Could you do the same for O=C1NC(=O)N(Cc2ccccc2)C(=O)/C1=C\C=C\c1ccco1 , please?
NO

Could you do the same for CCC(C)Cn1c(O)cc2nn(-c3nc4ccccc4s3)c(=O)c-2c1C (stereo not given) , please?
YES

---

Test system: GAPDH
Assay: Peg3 promoter luciferase inhibitors, potency, dose response, cell-based, HeLa, CREF/GAPDH counter-screen panel (AID 624167)
Settings: CREF/GAPDH counter-screens, run 1, dose range 1, individual replicate IC50 per panel
Just a reminder that ties go to N: only IC50 strictly below 10 µM counts as Y.

Study these solved cases before continuing.
CCc1ccn2cc(-c3ccc4c(c3)OCO4)nc2c1	Y
Cc1ccsc1/C=N/Nc1cccc(C(=O)O)c1	Y
O=C(Nc1ccc(Cc2ccncc2)cc1)c1ccc([N+](=O)[O-])o1	N
O=C(CCn1cnc(-c2ccccc2)c1-c1ccccc1)N/N=C/c1ccccc1O	N
CCCC(=O)NC(c1ccc(C(C)C)cc1)c1ccc2cccnc2c1O (configuration not stated)	N
CCC(C)Cn1c(O)cc2nn(-c3nc4ccccc4s3)c(=O)c-2c1C (configuration not stated)	Y

Quick check: does Cc1cc(C)c(C)c(S(=O)(=O)N2CCN(C(=O)c3cc(=O)[nH]c4ccccc34)CC2)c1C have IC50 under 10 µM?
N

Could you do the same for O=C(N/N=C\c1c(O)ccc2ccccc12)c1ccc(Cn2cccn2)o1 , please?
N

Could you do the same for CS(=O)(=O)Nc1cccc(NC(=O)C2Cc3c(-c4ccccc4)ccnc3O2)c1 (configuration not stated) , please?
N

Could you do the same for O=C(/C=C/c1ccc(Cl)c([N+](=O)[O-])c1)c1ccc(O)cc1 , please?
N

Could you do the same for O=C(NNC(=O)c1cccnc1SCc1cccc([N+](=O)[O-])c1)c1ccccn1 , please?
N

Could you do the same for COc1ccc(-n2c(O)c(/C=N/Nc3nc(C)cc(C)n3)c3ccccc3c2=O)cc1OC , please?
N

---

Target: UniProt Q6IN02
Sequence (Q6IN02 whole entry, looked up): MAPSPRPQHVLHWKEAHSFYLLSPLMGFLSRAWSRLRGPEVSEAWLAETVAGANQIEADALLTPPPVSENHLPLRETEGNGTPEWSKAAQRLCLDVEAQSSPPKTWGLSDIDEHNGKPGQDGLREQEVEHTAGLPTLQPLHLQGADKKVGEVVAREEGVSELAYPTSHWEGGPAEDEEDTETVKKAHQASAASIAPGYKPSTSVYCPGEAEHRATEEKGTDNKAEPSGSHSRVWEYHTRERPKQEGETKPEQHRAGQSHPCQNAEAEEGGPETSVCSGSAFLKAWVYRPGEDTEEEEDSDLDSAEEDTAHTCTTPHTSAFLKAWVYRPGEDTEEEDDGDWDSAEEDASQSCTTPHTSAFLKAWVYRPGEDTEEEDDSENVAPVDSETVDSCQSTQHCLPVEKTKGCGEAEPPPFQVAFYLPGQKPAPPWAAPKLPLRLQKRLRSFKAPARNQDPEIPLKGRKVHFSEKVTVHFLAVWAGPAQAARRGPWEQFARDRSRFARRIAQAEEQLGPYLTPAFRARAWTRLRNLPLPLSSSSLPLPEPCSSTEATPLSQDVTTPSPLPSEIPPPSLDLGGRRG
Test: Peg3 promoter luciferase inhibitors, potency, dose response, cell-based, HeLa, CREF/GAPDH counter-screen panel (AID 624167)
Details: HeLa PEG-Prom luciferase reporter, overnight, CREF/GAPDH counter-screens, mean of runs
Activity calls are given as the source filed them.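 How the source made its calls: active means mean IC50 for reducing PEG3 promoter reporter signal at or below a set limit, with IC50 above the limit in both counter screens; inactive means the rest, including counter screen hits.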
Log the outcome using a class from active, inactive

Study these solved cases before continuing.
COc1ccc(S(=O)(=O)/N=C2\C=C(Nc3ccc(O)cc3)C(=O)c3ccccc32)cc1	active
CC(C)(C)c1ccc(CN2N=Nc3ccccc3S2(=O)=O)cc1	inactive
CN1OC[C@@H]2CN[C@H](c3ccc(-c4cc5ccccc5o4)cc3)C[C@@H]21	active

Recorded call for NCCc1c(-c2ccccc2)n(-c2ccccc2)c2ccccc12 ?
active

Could you do the same for Cc1ccc(F)cc1-c1cc2nc(NCCCN(C)C)n(C)c(=O)c2s1 , please?
inactive

Could you do the same for COc1ccc2sc3cccc(NCCN(C)C)c3c(=O)c2c1 , please?
inactive

Could you do the same for O=C(/C=C/c1ccccc1)Nc1cccc(C(=O)O)c1 , please?
active

Could you do the same for C=C(C)Cn1c(SCC(=O)N/N=C/c2c(O)ccc3ccccc23)nc2ccccc2c1=O , please?
inactive

Could you do the same for CC1=CC2/C=C(\C)CCC(O)C(O)/C=C/C(=O)C23C(=O)NC(CC(C)C)C3C1C (stereo not given) , please?
active

Could you do the same for O=C(c1ccc(Cl)cc1)N1CCCCC(Sc2nnc(-c3ccc4c(c3)OCO4)o2)C1=O (stereo not given) , please?
active

---

Tested on: Rat fibroblasts (CREF)
Assay: Peg3 promoter luciferase inhibitors, potency, dose response, cell-based, HeLa, CREF/GAPDH counter-screen panel (AID 624167)
Settings: CREF/GAPDH counter-screens, mean of runs
The source made the active and inactive calls.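 The calls were made as follows: active = mean IC50 for reducing PEG3 promoter reporter signal at or below a set limit, with IC50 above the limit in both counter screens; inactive = the rest, including counter screen hits.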
Log the outcome using a class from active, inactive

CN(O)C(=S)c1ccccc1	inactive

Recorded call for COc1ccc(-c2nc(-c3ccccn3)no2)cc1 ?
active

Could you do the same for O=C(Nc1nc2cc3c(cc2s1)OCCO3)c1ccco1 , please?
active

Could you do the same for COc1cccc2c1C(=O)c1c(O)c3c(c(O)c1C2=O)CC(O)(C(C)=NNC(=O)c1ccc(Cl)c(Cl)c1)CC3OC1CC(N)C(O)C(C)O1 (stereo unspecified) , please?
active

Could you do the same for Cc1cc(Br)ccc1NC(=O)CNC(=O)Cn1ncc(Cl)c(Cl)c1=O , please?
inactive

Could you do the same for COc1cc(Nc2c3ccccc3nc3ccccc23)cc(OC)c1OC , please?
active

Could you do the same for CCn1nc(C)cc1-c1nnc(Sc2ncc([N+](=O)[O-])s2)n1C , please?
active

Could you do the same for Cc1nc2cc(-c3ccccc3)sc2c(=O)n1N , please?
active

Could you do the same for NC(Cc1ccc(F)cc1)c1csc(Nc2cc(Oc3ccccc3)ncn2)n1 (stereo unspecified) , please?
active

Could you do the same for O=C(CSC1c2ccccc2-c2ccccc21)N/N=C/c1ccccc1O , please?
inactive

Could you do the same for O=C(CNCCC1=CCCCC1)Nc1ccc(N2CCCCCC2)cc1 , please?
active

---

Assay: Peg3 promoter luciferase inhibitors, potency, dose response, cell-based, HeLa, CREF/GAPDH counter-screen panel (AID 624167)
Settings: CREF/GAPDH counter-screens; GAPDH; mean of runs
The source made the active and inactive calls.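 How the source made its calls: active means mean IC50 for reducing PEG3 promoter reporter signal at or below a set limit, with IC50 above the limit in both counter screens; inactive means the rest, including counter screen hits.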
Log the outcome using a class from YES for active, NO for inactive

CCCC(=O)NC(c1ccccc1)c1ccc2cccnc2c1O (stereo unspecified)	NO
Cc1ccccc1CNC(=O)C1CCCN(c2nnc(C)c3c(C)n(-c4ccccc4)nc23)C1 (stereo unspecified)	NO
CCCC(=O)NC(c1ccc(OC)cc1)c1ccc2cccnc2c1O (stereo unspecified)	NO
CS(=O)(=O)Nc1cccc(NC(=O)C2Cc3c(-c4ccccc4)ccnc3O2)c1 (stereo unspecified)	NO
Nc1nonc1-n1nnc(C(=O)N/N=C/c2cc(Br)ccc2O)c1CNc1ccccc1	NO
CC(C)(C)c1ccc(Oc2ccc(N)cc2)cc1	YES

Recorded call for O=C(N/N=C\c1c(O)ccc2ccccc12)c1cncc(Br)c1 ?
NO

Could you do the same for O=C(N/N=C/c1c(O)ccc2ccccc12)c1ccc(CO)nc1 , please?
NO

Could you do the same for CCOC(=O)c1c(SCCN2CCCCC2)n(-c2ccccc2)c(=S)n(-c2ccccc2)c1=O , please?
YES

Could you do the same for C=C1CC2(OC1=O)c1ccccc1CCc1ccccc12 , please?
YES

Could you do the same for O=C(c1ccco1)N1CCN(C(c2ccccc2Cl)c2nnnn2Cc2cccs2)CC1 (stereo unspecified) , please?
NO

---

Test system: PEG-3
Test: Peg3 promoter luciferase inhibitors, potency, dose response, cell-based, HeLa, CREF/GAPDH counter-screen panel (AID 624167)
Conditions: HeLa PEG-Prom luciferase reporter, overnight, CREF/GAPDH counter-screens, run 1, dose range 1, individual replicate IC50 per panel
Consider the following compounds and their measured pIC50 readings.
Note on pIC50: it is the negative log10 of concentration, concentration in mol/L.

O=C(Nc1nc2ccccc2[nH]1)c1ccccc1F	5.95
CCC(=O)NC(c1ccc(C)cc1)c1ccc2cccnc2c1O (configuration not stated)	5.88
CCCCCCN1C=C/C(=C\C=C(C#N)C#N)c2ccccc21	4.87
CCN1CCCC1CN(Cc1cc2ccc(C)cc2[nH]c1=O)C(=S)Nc1ccc(OC)cc1 (configuration not stated)	4.38
Cc1ccc(C)c(OCC(O)CN2CCC(CN3C(=O)c4cccc5cccc(c45)C3=O)CC2)c1 (configuration not stated)	4.74
CCc1ccn2cc(-c3ccc4c(c3)OCO4)nc2c1	5.71
O=C(CSc1nc(Nc2ccccc2)nc(N2CCOCC2)n1)Nc1cc(Cl)ccc1O	4.89
Cc1cccc(/C=C2/Sc3ccc(C(=O)NCCN4CCCC4)cc3NC2=O)c1	4.68
COc1ccc(-n2ncc3c(N(C)C4CCCCC4)ncnc32)cc1	4.58
COc1ccccc1CCNC(=O)C1CCN(c2nnc(C)c3c(C)n(-c4ccc(C)cc4)nc23)CC1	4.71

Reported pIC50 for PEG-3, given COc1cccc(CN(C)C(=O)c2cc(-c3cccs3)nc3ccccc23)c1 ?
4.61

Could you do the same for Nc1nonc1-n1nnc(C(=O)N/N=C/c2cc(Br)ccc2O)c1CNc1ccccc1 , please?
5.38

Could you do the same for COc1ccc(/C=N/Nc2nncc3ccccc23)cc1 , please?
5.34
